The following compounds are listed with their measured inhibition at 2 µM values.
- System: P. falciparum female gametocytes
- Assay Protocol: P. falciparum Dual Gamete Formation Assay (PfDGFA), female readout (Pfs25-positive female gametes)
- Format: cell-based, Plasmodium falciparum NF54
- Condition Set: Plasmodium falciparum; 2µM, 24h preincubation with gametocytes; replicate R4; read-out: % inhibition female (individual replicates) R4
Parameter: inhibition at 2 µM (%)

* C=CCN(C(=O)c1ccc(Cl)c([N+](=O)[O-])c1)c1nc(-c2ccccc2)cs1 | 38.9
* CC(C)(C)c1ccc(-c2nc3c(ccc4nc(N)nc(N)c43)[nH]2)cc1.Cl | 41.7
* Nc1cc(C=Cc2ccc([N+](=O)[O-])s2)nc2ccccc12 | 89.8
* N=C(N)NCCN(Cc1ccccc1)c1ccc(Cl)cc1 | 67.4
